Measured values drawn from patent US4086417A for this set.

- Test system: leukemia L-1210
- assay protocol: Antitumour activity in mice inoculated intraperitoneally with leukemia L-1210 (survival, T/C)
- Type: in vivo, CDF-1 male mice
- assay context: Mus musculus, L1210, ip; 100 mg/kg i.p., directly after injection of L-1210, after 2 days and after 6 days
Structures can show the parent of a compound that is named as a salt.
quantity kind: response vs control in vivo at 100 mg/kg

Example results:
{"compound": "CCCCCC(=O)Nc1ccn([C@@H]2O[C@H](CO)[C@@H](O)[C@@H]2O)c(=O)n1 [N^4 -Caproyl-Ara-C]", "response vs control in vivo at 100 mg/kg": "125%"}
{"compound": "CCCCCCCCCCCCCCCC(=O)Nc1ccn([C@@H]2O[C@H](COP(=O)(O)O)[C@@H](O)[C@@H]2O)c(=O)n1 [N^4 -Palmitoyl-5'-PNa]", "response vs control in vivo at 100 mg/kg": "> 349%"}
{"compound": "CCCCCCCCCCCCCCCCCC(=O)Nc1ccn([C@@H]2O[C@H](CO)[C@@H](O)[C@@H]2OP(=O)(O)O)c(=O)n1 [N^4-stearoyl-Ara-C-2'-PNa, monosodium salt]", "response vs control in vivo at 100 mg/kg": "228%"}
{"compound": "CCCCCCCCCCCCCC(=O)Nc1ccn([C@@H]2O[C@H](CO)[C@@H](O)[C@@H]2O)c(=O)n1 [N^4 -Myristoyl-Ara-C]", "response vs control in vivo at 100 mg/kg": "206%"}
{"compound": "CCCCCCCC(=O)Nc1ccn([C@@H]2O[C@H](COP(=O)(O)O)[C@@H](O)[C@@H]2O)c(=O)n1 [N^4 -Caprylyl-5'-PNa]", "response vs control in vivo at 100 mg/kg": "103%"}

Record CCCCCCCCCCCCCCCCCCCCCC(=O)Nc1ccn([C@@H]2O[C@H](CO)[C@@H](O)[C@@H]2O)c(=O)n1 [N^4 -Behenoyl-Ara-C] : what is its response vs control in vivo at 100 mg/kg with leukemia L-1210?
313%

So what response vs control in vivo at 100 mg/kg did CCCCC/C=C\C/C=C\CCCCCCCC(=O)Nc1ccn([C@@H]2O[C@H](COP(=O)(O)O)[C@@H](O)[C@@H]2O)c(=O)n1 [N^4 -Linoleoyl-5'-PNa] get with leukemia L-1210?
275%

Notebook entry, leukemia L-1210 assay: response vs control in vivo at 100 mg/kg of CCCCCCCCCCCCCCCCCC(=O)Nc1ccn([C@@H]2O[C@H](CO)[C@@H](O)[C@@H]2O)c(=O)n1 [N^4 -Stearoyl-Ara-C] = ?
> 274%

What is its response vs control in vivo at 100 mg/kg for leukemia L-1210? Entry: CC(=O)Nc1ccn([C@@H]2O[C@H](CO)[C@@H](O)[C@@H]2O)c(=O)n1 [N^4 -Acetyl-Ara-C]
125%

Write down the reported response vs control in vivo at 100 mg/kg of CCCCC(=O)Nc1ccn([C@@H]2O[C@H](COP(=O)(O)O)[C@@H](O)[C@@H]2O)c(=O)n1 [N^4 -Valeryl-5'-PNa] , test system: leukemia L-1210.
101%

For leukemia L-1210, provide response vs control in vivo at 100 mg/kg of CCCCC/C=C\C/C=C\C/C=C\C/C=C\CCCC(=O)Nc1ccn([C@@H]2O[C@H](COP(=O)(O)O)[C@@H](O)[C@@H]2O)c(=O)n1 [N^4 -Arachidonoyl-5'-PNa] please.
274%

Form field - read-out: response vs control in vivo at 100 mg/kg; system: leukemia L-1210; submitted item: CCCCCCCCCCCCCCC(=O)Nc1ccn([C@@H]2O[C@H](COP(=O)(O)O)[C@@H](O)[C@@H]2O)c(=O)n1 [N^4 -Pentadecanoyl-5'-PNa]
> 302%

// map CCC(=O)Nc1ccn([C@@H]2O[C@H](CO)[C@@H](O)[C@@H]2O)c(=O)n1 [N^4 -Propionyl-Ara-C] to recorded response vs control in vivo at 100 mg/kg (system: leukemia L-1210)
131%
